- Tested on: S. aureus ATCC13709
- assay explanation: In vitro antibacterial activity (MIC assay), broth microdilution
- Format: cell-based
- condition parameters: Staphylococcus aureus, ATCC13709; read-out: S. aureus ATCC13709 MIC
- Experimental: Minimal inhibitory concentration (MIC) has been an indicator of in vitro antibacterial activity widely used in the art. The in vitro antibacterial activity of the compounds was determined by the broth microdilution method described by the National Committee for Clinical Laboratory Standards (NCCLS) in the NCCLS Document M7-A5, Vol. 20, No. 2, “Methods for Dilution Antimicrobial Susceptibility Test for Bacteria that Grow Aerobically—Fifth Edition”, which is incorporated herein by reference. […]
measure: MIC (µg/mL)
Please give a number only; it is taken to be in µg/mL.

{"compound": "COc1ccc2nccc(-n3cc4c(n3)CCC(NCC(=O)Nc3ccccc3)C4)c2n1 (stereo not shown)", "endpoint result": 1}

The reported MIC value, S. aureus ATCC13709, for COc1ccc2nccc(-n3cc4c(n3)CCC(NC(=O)c3ccc5c(c3)NC(=O)CO5)C4)c2n1 (stereo not shown) reads 0.125

The reported MIC value, S. aureus ATCC13709, for COc1ccc2nccc(-n3cc4c(n3)CCC(NC(=O)c3cc5c(F)cc(F)cc5[nH]3)C4)c2n1 (stereo not shown) reads 0.25

* * *

# reported MIC; entries follow
- System: S. aureus ATCC13709
- assay explanation: In vitro antibacterial activity (MIC assay), broth microdilution
- Format: cell-based
- condition parameters: Staphylococcus aureus, ATCC13709; read-out: S. aureus ATCC13709 MIC
- Method: Minimal inhibitory concentration (MIC) has been an indicator of in vitro antibacterial activity widely used in the art. The in vitro antibacterial activity of the compounds was determined by the broth microdilution method described by the National Committee for Clinical Laboratory Standards (NCCLS) in the NCCLS Document M7-A5, Vol. 20, No. 2, “Methods for Dilution Antimicrobial Susceptibility Test for Bacteria that Grow Aerobically—Fifth Edition”, which is incorporated herein by reference. […]

Worked examples follow.
{"compound": "COc1ccc2nccc(-n3cc4c(n3)CCC(NCc3ccc(N(C)C)c(C#N)c3F)C4)c2n1 (stereo not drawn)", "measure": "MIC", "endpoint result": "< 0.125 µg/mL"}
{"compound": "COc1ccc2nccc(-n3cc4c(n3)CCC(NCc3ccc5c(c3)NCCS5)C4)c2n1 (stereo not drawn)", "measure": "MIC", "endpoint result": "< 0.125 µg/mL"}
{"compound": "COc1ccc2nccc(-n3cc4c(n3)CCC(NC(=O)c3cc5c(cc3Cl)SCC(=O)N5)C4)c2c1 (stereo not drawn)", "measure": "MIC", "endpoint result": "< 0.125 µg/mL"}
{"compound": "O=C1CSc2ccc(C(=O)NC3CCc4nn(-c5cccc6ccccc56)cc4C3)cc2N1 (stereo not drawn)", "measure": "MIC", "endpoint result": "0.5 µg/mL"}
{"compound": "COc1ccc2nccc(-n3cc4c(n3)CCC(NC(=O)/C=C/c3ccccn3)C4)c2n1 (stereo not drawn)", "measure": "MIC", "endpoint result": "2 µg/mL"}

Item: COc1ccc2nccc(-n3cc4c(n3)CCC(NCc3cc(F)c5c(c3)OCCO5)C4)c2c1 (stereo not drawn) | MIC: 0.25 µg/mL

Item: COc1ccc2nccc(-n3cc4c(n3)CCC(NC(=O)c3ccc([N+](=O)[O-])cc3F)C4)c2c1 (stereo not drawn) | MIC: 4 µg/mL

Item: COc1ccc2nccc(-n3cc4c(n3)CCC(NCc3cc5c(cc3F)SCC(=O)N5)C4)c2n1 (stereo not drawn) | MIC: 0.25 µg/mL

Item: COc1ccc2nccc(-n3cc4c(n3)CCC(NC(=O)c3cc5cc(Cl)ccc5[nH]3)C4)c2c1 (stereo not drawn) | MIC: 2 µg/mL

* * *

- target: E. coli DNA gyrase (Escherichia coli, UniProt P0AES4+P0AES6)
- Construct: purchased John Innes Enterprises Ltd. (John Innes Centre, UK)
- assay explanation: DNA gyrase inhibition assay (supercoiling)
- Assay type: biochemical
- condition parameters: E. coli DNA gyrase supercoiling, visual inspection of gels; read-out: DNA Gyrase IC50 (converted)
# reported IC50; entries follow
Please give a number only; it is taken to be in µM.

Worked examples follow.
{"molecule": "COc1ccc2nccc(-n3cc4c(n3)CCC(NCc3ccc5c(c3)NC(=O)CS5)C4)c2c1 (stereo not drawn) [Example 52]", "endpoint unit": "µM", "IC50": 0.265}
{"molecule": "COc1ccc2nccc(-n3cc4c(n3)CCC(NCCOc3ccccc3)C4)c2n1 (stereo not drawn) [Example 65]", "endpoint unit": "µM", "IC50": 2.41}

Item: COc1ccc2nccc(-n3cc4c(n3)CCC(NCc3ccc5c(c3)OCO5)C4)c2n1 (stereo not drawn) [Example 37] | IC50: 0.582

* * *

- target: E. coli DNA gyrase (Escherichia coli, UniProt P0AES4+P0AES6)
- Construct: purchased John Innes Enterprises Ltd. (John Innes Centre, UK)
- assay explanation: DNA gyrase inhibition assay (supercoiling)
- Type: biochemical
- condition parameters: E. coli DNA gyrase supercoiling, visual inspection of gels; read-out: DNA Gyrase IC50 (converted)
measure: IC50 (µM)
Please give a number only; it is taken to be in µM.

{"compound": "COc1ccc2nccc(-n3cc4c(n3)CCC(NC(=O)c3ccc5c(c3)NC(=O)CS5)C4)c2n1 (stereo not shown)", "IC50, µM": 0.514}
{"compound": "COc1ccc2nccc(-n3cc4c(n3)CCC(NCc3ccc5c(c3)NCCS5)C4)c2n1 (stereo not shown)", "IC50, µM": 1.09}
{"compound": "COc1ccc2nccc(-n3cc4c(n3)CCC(NC(=O)c3cc5c(cc3Br)SCC(=O)N5)C4)c2n1 (stereo not shown)", "IC50, µM": 0.442}

The record that follows has no IC50 shown yet.
Item: COc1ccc2nccc(-n3cc4c(n3)CCC(NC/C=C/c3ccccc3)C4)c2n1 (stereo not shown) | IC50: 0.292

* * *

- System: S. aureus ATCC13709
- assay explanation: In vitro antibacterial activity (MIC assay), broth microdilution
- Type: cell-based
- condition parameters: Staphylococcus aureus, ATCC13709; read-out: S. aureus ATCC13709 MIC
measure: MIC (µg/mL)
Please give a number only; it is taken to be in µg/mL.

{"compound": "COc1ccc2nccc(-n3cc4c(n3)CCC(NCC(=O)Nc3ccc(C)cc3)C4)c2n1 (stereo not shown) [Example 60]", "measure": "MIC", "endpoint result": 1}
{"compound": "COc1ccc2nccc(-n3cc4c(n3)CCC(NC(=O)c3cc5ccccc5[nH]3)C4)c2c1 (stereo not shown) [Example 21]", "measure": "MIC", "endpoint result": 1}

Item: COc1ccc2nccc(-n3cc4c(n3)CCC(NC(=O)c3ccc(OC)c([N+](=O)[O-])c3)C4)c2n1 (stereo not shown) [Example 119] | MIC: 4

Item: COc1ccc2nccc(-n3cc4c(n3)CCC(NC/C=C/c3ccc(F)cc3)C4)c2c1 (stereo not shown) [Example 57] | MIC: 1

Item: O=C1CSc2ccc(C(=O)NC3CCc4nn(-c5cccc6cccnc56)cc4C3)cc2N1 (stereo not shown) [Example 31] | MIC: 0.25

Item: COc1ccc2nccc(-n3cc4c(n3)CCC(NCc3ccc(N5CCCCC5)cc3)C4)c2n1 (stereo not shown) [Example 86] | MIC: 4

Item: COc1ccc2nccc(-n3cc4c(n3)CCC(NC(=O)c3cccnc3Cl)C4)c2c1 (stereo not shown) [Example 78] | MIC: 16

* * *

- Test system: CipR MRSA OC4159
- assay explanation: Resistant strains assay (broth microdilution MIC)
- Assay type: cell-based
- condition parameters: Staphylococcus aureus, read-out: MIC, Column F
Note to self: MIC under 0.2 µg/mL means 1, ties and anything higher get -1.

Some entries whose results are on file:
{"compound": "CCn1cc(C(=O)O)c(=O)c2cc(F)c(N3CCNCC3)cc21 [Norfloxacin, reference compound]", "classification": -1}
{"compound": "COc1ccc2nccc(-n3cc4c(n3)CCC(NCc3ccc5c(c3)NC(=O)CS5)C4)c2c1 (stereo not shown)", "classification": -1}
{"compound": "COc1ccc2nccc(-n3cc4c(n3)CCC(NC/C=C/c3ccccc3)C4)c2n1 (stereo not shown)", "classification": 1}

Attention now shifts to the item below.
Ask: Dear reviewer, please state whether COc1ccc2nccc(-n3cc4c(n3)CCC(NC(=O)c3cc5c(cc3F)SCC(=O)N5)C4)c2n1 (stereo not shown) has MIC strictly beneath 0.2 µg/mL.
Result: 1

* * *

- target: E. coli DNA gyrase (Escherichia coli, UniProt P0AES4+P0AES6)
- Construct: purchased John Innes Enterprises Ltd. (John Innes Centre, UK)
- assay explanation: DNA gyrase inhibition assay (supercoiling)
- Type: biochemical
- condition parameters: E. coli DNA gyrase supercoiling, visual inspection of gels; read-out: DNA Gyrase IC50 (converted)
# reported IC50; entries follow
Please give a number only; it is taken to be in µM.

Worked examples follow.
{"compound": "COc1ccc2nccc(-n3cc4c(n3)CCC(NCc3ccc5c(n3)NC(=O)CO5)C4)c2c1 (stereo not drawn)", "endpoint unit": "µM", "endpoint result": 0.131}
{"compound": "COc1ccc2nccc(-n3cc4c(n3)CCC(NC/C=C/c3ccccc3[N+](=O)[O-])C4)c2n1 (stereo not drawn)", "endpoint unit": "µM", "endpoint result": 0.274}
{"compound": "COc1ccc2nccc(-n3cc4c(n3)CCC(NC/C=C/c3ccc(F)cc3)C4)c2c1 (stereo not drawn)", "endpoint unit": "µM", "endpoint result": 4.67}
{"compound": "COc1ccc2nccc(-n3cc4c(n3)CCC(NCc3cc5c(cc3F)SCC(=O)N5)C4)c2c1 (stereo not drawn)", "endpoint unit": "µM", "endpoint result": 1.02}
{"compound": "COc1ccc2nccc(-n3cc4c(n3)CCC(NCc3ccc5c(c3)OC(F)(F)O5)C4)c2n1 (stereo not drawn)", "endpoint unit": "µM", "endpoint result": 4.3}
{"compound": "COc1ccc2nccc(-n3cc4c(n3)CCC(NCc3ccc5c(c3)NC(=O)CS5)C4)c2n1 (stereo not drawn)", "endpoint unit": "µM", "endpoint result": 0.127}
{"compound": "COc1ccc2nccc(-n3cc4c(n3)CCC(NC(=O)/C=C/c3ccc(F)cc3F)C4)c2n1 (stereo not drawn)", "endpoint unit": "µM", "endpoint result": 4.33}
{"compound": "COc1ccc2nccc(-n3cc4c(n3)CCC(NC(=O)c3cc5c(cc3C(F)(F)F)SCC(=O)N5)C4)c2c1 (stereo not drawn)", "endpoint unit": "µM", "endpoint result": 1.81}

The reported IC50 value, E. coli DNA gyrase (Escherichia coli, UniProt P0AES4+P0AES6), for COc1ccc2nccc(-n3cc4c(n3)CCC(NCC(=O)Nc3cc(F)cc(F)c3)C4)c2c1 (stereo not drawn) reads 4.32

The reported IC50 value, E. coli DNA gyrase (Escherichia coli, UniProt P0AES4+P0AES6), for COc1ccc2nccc(-n3cc4c(n3)CCC(NC(=O)c3cc5cc(F)c(F)cc5[nH]3)C4)c2c1 (stereo not drawn) reads 4.22
